biological target: D-2 receptor (Rattus norvegicus); construct: Striatal tissue was excised, pooled, and homogenized; experiment: Competitive inhibition assay, 3H-spiperone binding to rat striatal tissue (D-2); details: rat striatal homogenate, 0.2 nM 3H-spiperone, pH 7.4, 37° C., 15 minutes, read-out: Ki against 3H-spiperone
Sequence (P61169 whole entry): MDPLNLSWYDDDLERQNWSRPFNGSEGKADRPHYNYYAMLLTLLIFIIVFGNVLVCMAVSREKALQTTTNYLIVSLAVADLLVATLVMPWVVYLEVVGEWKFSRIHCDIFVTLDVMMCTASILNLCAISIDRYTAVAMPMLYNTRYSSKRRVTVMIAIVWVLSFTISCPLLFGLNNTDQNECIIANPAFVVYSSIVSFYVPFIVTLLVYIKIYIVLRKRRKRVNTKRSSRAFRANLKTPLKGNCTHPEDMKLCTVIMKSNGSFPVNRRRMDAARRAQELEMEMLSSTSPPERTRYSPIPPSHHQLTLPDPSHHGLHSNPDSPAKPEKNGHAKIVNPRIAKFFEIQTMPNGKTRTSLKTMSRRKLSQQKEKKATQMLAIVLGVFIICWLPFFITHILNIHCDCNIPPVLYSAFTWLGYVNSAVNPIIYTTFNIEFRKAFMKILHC
Can you tell me log10(Ki) for the items I'm about to list?
Base-10 log of Ki, unit µM.

Cc1cc2c(cc1O)[C@H](C1=CCCCC1)CN(C)CC2 [B, reference compound]: 0.64
CN1CCc2cc(Cl)c(O)cc2[C@H](C2=CCCCC2)C1: 0.32

List the reported log10(Ki) of each compound below.
1. Cc1cc2c(cc1O)[C@@H](C1=CCCCC1)CN(C)CC2 [C, reference compound]
2. Cc1cc2c(cc1O)C(C1CCCCC1)CN(C)CC2 (stereo not shown) [E, reference compound]
3. CC1=C(C2CN(C)CCc3cc(Cl)c(O)cc32)CCC1 (racemic)
4. Cc1cc2c(cc1O)C(C1=CCCCC1)CN(C)CC2 (racemic) [A, reference compound]
5. CC1=C(C2CN(C)CCc3cc(Cl)c(O)cc32)CCCC1 (racemic)
6. CN1CCc2cc(Cl)c(O)cc2C(C2=CCCCC2)C1 (racemic)

Data returned:
[0.22, 0.56, -0.18, 0.27, -0.38, 0.16]

Hey, can you go through the list below and give me log10(Ki) for every item?
1. Cc1cc2c(cc1O)C(C1CCCC1)CN(C)CC2 (stereo not shown) [F, reference compound]
2. CN1CCc2cc(Cl)c(O)cc2[C@@H](C2=CCCCC2)C1

Data returned:
1: 0.02; 2: 0.04
